Test system: Escherichia coli TOP10;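 also: peptides expressed intracellularly from a pBAD plasmid library in pooled LB shake-flask culture, induced with 0.3% L-arabinose, DNA abundance read by NGS, three biological replicates, DESeq2 with apeglm shrinkage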
assay.notes: shrunken log2 fold change of peptide-encoding DNA abundance (4.5 h post-induction vs induction); higher = less antimicrobial activity (less host growth inhibition)
conditions.used: time post-induction: 4.5 h; library: site-saturation at positions 5, 18, 19, 20
Rule: shrunken log2 fold change of -0.2 or more gives 1 (yes); anything lower gives 0 (no).

Solved entries (count: 7):
RRIRKRPPRLPRPRPRPREGPRP 1 (yes)
RRIRHRPPRLPRPRPRPDYWPRP 1 (yes)
RRIRARPPRLPRPRPRPYYMPRP 0 (no)
RRIRIRPPRLPRPRPRPVSKPRP 1 (yes)
RRIRFRPPRLPRPRPRPVMAPRP 0 (no)
RRIRMRPPRLPRPRPRPRGFPRP 1 (yes)
RRIRTRPPRLPRPRPRPACVPRP 1 (yes)

Does the reported shrunken log2 fold change for RRIRCRPPRLPRPRPRPENVPRP fall at or above the -0.2 mark? 1 (yes)
